Parameter Measured: melting point

(Q) Find the recorded melting point belonging to `CC1(C)Oc2ncnc(N)c2N=C1c1ccc([C@H]2CC[C@H](CN3C(=O)c4ccccc4C3=O)CC2)cc1` and report it.
(A) 225 to 227 °C

(Q) What melting point value was documented for this compound, `CC1(C)Oc2ncnc(N)c2N=C1c1ccc(C(C)(C)C(=O)O)cc1` ?
(A) > 250 °C

(Q) Query (compound): `CC(=O)NCC[C@H]1CC[C@H](c2ccc(C3=Nc4c(N)ncnc4OC3(C)C)cc2)CC1` ; field requested: melting point
(A) 238 to 239 °C

(Q) Field request: melting point | item: `Cc1nc(N)c2c(n1)OC(C)(C)C(c1ccc([C@H]3CC[C@H](CCNC(=O)C(C)(C)O)CC3)cc1)=N2`
(A) 221 to 223 °C

(Q) Quick check: melting point of `CC(C)(NC(=O)[C@H]1CC[C@H](c2ccc(C3=Nc4c(N)ncnc4OC3(C)C)cc2)CC1)C(=O)O` ?
(A) > 250 °C

(Q) Requested field: melting point. Item: `COc1ccc(C2=Nc3c(N)ncnc3OC2)cc1`
(A) 191 to 193 °C

(Q) Give the measured melting point of `CC1(C)Oc2ncnc(N)c2N=C1c1ccc([C@H]2CC[C@H](OCC(=O)O)CC2)cc1` .
(A) > 230 °C

(Q) Data request, read-out melting point, for `Cc1nc(N)c2c(n1)OC(C)(C)C(c1ccc([C@H]3CC[C@H](Cc4nc(=O)[nH]n4C)CC3)cc1)=N2`
(A) > 230 °C

(Q) Given the compound `COc1ccc(C2=Nc3c(N)ncnc3OC2(C)C)cc1` , what is its reported melting point?
(A) 183 to 184 °C

---

Parameter Measured: melting point

(Q) Form field: reported melting point of `CC1(C)Oc2ncnc(N)c2N=C1c1ccc(N2CCOCC2)cc1`
(A) 214 to 219 °C

(Q) What value of melting point has been recorded for this entry: `CC1(C)Oc2ncnc(N)c2N=C1c1ccc(-c2ccccc2)cc1`
(A) 218 to 219 °C

(Q) Consider the compound `CCN(CC)C(=O)CC[C@H]1CC[C@H](c2ccc(C3=Nc4c(N)ncnc4OC3(C)C)cc2)CC1` and give its measured melting point.
(A) 192 to 194 °C

(Q) # get_value(readout='melting point', item= `CC1(C)Oc2ncnc(N)c2N=C1c1ccc([C@H]2CC[C@H](CNS(N)(=O)=O)CC2)cc1` )
(A) 226 to 227 °C

(Q) // returns reported melting point for input `CC1(C)Oc2ncnc(N)c2N=C1c1ccc([C@H]2CC[C@H](CC(=O)N3CCC(O)CC3)CC2)cc1`
(A) 137 to 139 °C

(Q) Look at this compound and give its reported melting point. `CC1(C)Oc2ncnc(N)c2N=C1c1ccc(C2CCC(F)(F)CC2)cc1`
(A) 226 to 227 °C

(Q) Suppose we examine the compound `Nc1ncnc2c1N=C(c1ccc(OC(F)(F)F)cc1)CO2` ; what melting point value has been reported?
(A) 209 to 212 °C

(Q) Tell me the measured melting point of `CC1(C)Oc2ncnc(N)c2N=C1c1ccc([C@H]2CC[C@H](CN3CCC(C(N)=O)CC3)CC2)cc1` , please.
(A) 159 to 164 °C

---

So I've got a bunch of compounds here, and I need their melting point values.

(Q) So what does the record say about melting point for CC1(C)Oc2ncnc(N)c2NC1c1ccc([C@H]2CC[C@H](Cc3nn[nH]n3)CC2)cc1 (stereo partly drawn) [Example 2-76] ?
(A) > 250 °C

(Q) What measured melting point goes with Cc1csc(NC[C@H]2CC[C@H](c3ccc(C4=Nc5c(N)ncnc5OC4(C)C)cc3)CC2)n1 [Example 2-127] ?
(A) 228 to 230 °C

(Q) // query melting point value for entry CC1(C)Oc2ncnc(N)c2N=C1c1ccc([C@H]2CC[C@H](NS(N)(=O)=O)CC2)cc1 [Example 2-218]
(A) 212 °C

---

# Study Target: human DGAT1 (Homo sapiens, UniProt O75907)
# Sequence (O75907 1-488): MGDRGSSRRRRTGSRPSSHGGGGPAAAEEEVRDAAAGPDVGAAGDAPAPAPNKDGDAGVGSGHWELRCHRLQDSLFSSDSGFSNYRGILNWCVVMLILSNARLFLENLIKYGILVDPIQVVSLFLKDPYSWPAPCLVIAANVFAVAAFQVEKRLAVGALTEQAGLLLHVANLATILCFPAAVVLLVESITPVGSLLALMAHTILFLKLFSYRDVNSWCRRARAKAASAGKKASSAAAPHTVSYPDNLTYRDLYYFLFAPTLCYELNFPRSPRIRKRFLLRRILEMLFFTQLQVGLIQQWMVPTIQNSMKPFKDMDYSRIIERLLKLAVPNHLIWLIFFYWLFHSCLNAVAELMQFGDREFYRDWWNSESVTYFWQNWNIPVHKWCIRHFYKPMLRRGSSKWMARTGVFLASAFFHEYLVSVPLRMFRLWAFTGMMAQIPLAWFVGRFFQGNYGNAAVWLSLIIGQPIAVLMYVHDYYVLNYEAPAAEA
pIC50: −log10 of the molar value.
Parameter Measured: pIC50

(Q) # pIC50 lookup, item `CC1(C)Oc2ncnc(N)c2N=C1c1ccc([C@H]2CC[C@H](CN3CCC(O)(c4ccccc4)CC3)CC2)cc1`
(A) < 7.00

(Q) Param item = CC1(C)Oc2ncnc(N)c2NC1c1ccc([C@H]2CC[C@H](CS(N)(=O)=O)CC2)cc1 (stereo partly shown) ; retrieve measured pIC50.
(A) < 7.00

(Q) # pIC50 lookup, item Cc1nc(N)c2c(n1)OC(C)(C)C(c1ccc(CC3CCC(C(=O)O)CC3)cc1)=N2 (stereo not shown)
(A) 7.00 to 8.00

(Q) Given the entry `Cc1nc(N)c2c(n1)OC(C)(C)C(c1ccc([C@H]3CC[C@H](C(=O)O)CC3)cc1)=N2` , report its measured pIC50.
(A) 7.00 to 8.00

(Q) What value of pIC50 has been reported for the following compound? `Nc1ncnc2c1N=C(c1ccc(-c3ccccc3)cc1)CO2`
(A) < 7.00

(Q) Entry COc1ccc(C2Nc3c(N)ncnc3OC2(C)C)cc1 (stereo not shown) has what pIC50?
(A) < 7.00

(Q) Recorded pIC50 for `CC1(C)Oc2ncnc(N)c2N=C1c1ccc([C@H]2CC[C@H](CCNC(=O)[C@@H]3C[C@@H](O)CN3)CC2)cc1` , please?
(A) 7.00 to 8.00

(Q) pIC50 lookup needed for Cc1nc(N)c2c(n1)OC(C)(C)C(c1ccc([C@H]3CC[C@H](CN4CCCC(O)C4=O)CC3)c(Cl)c1)=N2 (stereo partly shown) , thanks.
(A) 7.00 to 8.00

(Q) Need pIC50, item `CC(C)(NC(=O)[C@H]1CC[C@H](c2ccc(C3=Nc4c(N)ncnc4OC3(C)C)cc2)CC1)C(=O)O`
(A) > 8.00

(Q) Endpoint output: pIC50 of `CC1(C)Oc2ncnc(N)c2N=C1c1ccc([C@H]2CC[C@H](CN3CCN(S(C)(=O)=O)CC3)CC2)cc1` . Value?
(A) 7.00 to 8.00

---

Target chain: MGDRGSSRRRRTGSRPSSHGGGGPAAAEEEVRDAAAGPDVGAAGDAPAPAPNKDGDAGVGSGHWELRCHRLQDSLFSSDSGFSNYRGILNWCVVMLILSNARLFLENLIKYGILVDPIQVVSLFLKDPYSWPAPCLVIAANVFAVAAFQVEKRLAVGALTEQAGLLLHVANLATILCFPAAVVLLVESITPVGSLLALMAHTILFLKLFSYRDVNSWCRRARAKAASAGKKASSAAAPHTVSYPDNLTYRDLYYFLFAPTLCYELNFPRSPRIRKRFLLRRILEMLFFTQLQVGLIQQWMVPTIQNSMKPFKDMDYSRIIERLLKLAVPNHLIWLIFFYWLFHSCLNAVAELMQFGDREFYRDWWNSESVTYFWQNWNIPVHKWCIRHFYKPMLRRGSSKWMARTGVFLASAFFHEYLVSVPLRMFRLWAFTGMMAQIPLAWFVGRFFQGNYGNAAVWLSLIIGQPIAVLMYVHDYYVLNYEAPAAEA
pIC50: −log10 of the molar value.
Parameter Measured: pIC50

(Q) Tell me the measured pIC50 of `CCOC(=O)N1CCC(NC[C@H]2CC[C@H](c3ccc(C4=Nc5c(N)ncnc5OC4(C)C)cc3)CC2)CC1` , please.
(A) < 7.00

(Q) Form field: reported pIC50 of `Cc1nc(N)c2c(n1)OC(C)(C)C(c1ccc([C@H]3CC[C@H](Cc4cc(O)[nH]n4)CC3)cc1)=N2`
(A) 7.00 to 8.00

(Q) Which pIC50 is listed for `CC(C)C(=O)N1CCN(C[C@H]2CC[C@H](c3ccc(C4=Nc5c(N)ncnc5OC4(C)C)cc3)CC2)CC1` ?
(A) 7.00 to 8.00

(Q) Tell me the measured pIC50 of CC1(C)Oc2ncnc(N)c2NC1c1ccc(Cl)cc1 (stereo not drawn) , please.
(A) < 7.00

(Q) Any idea what pIC50 was measured for `CC1(C)Oc2ncnc(N)c2N=C1c1ccc([C@H]2CC[C@H](CO)CC2)cc1` ?
(A) 7.00 to 8.00

(Q) Which measured pIC50 value corresponds to `CC1(C)Oc2ncnc(N)c2N=C1c1cccc(Cl)c1` ?
(A) < 7.00

(Q) May I ask what pIC50 has been recorded for `CCN(CC)c1ccc(C2=Nc3c(N)ncnc3OC2)cc1` ?
(A) < 7.00

(Q) Name the reported pIC50 value associated with the molecule `CC1(C)Oc2ncnc(N)c2N=C1c1ccc([C@H]2CC[C@H](CC(=O)N3CCCC3)CC2)cc1`
(A) 7.00 to 8.00

(Q) Consider the molecule shown here: CC(C(=O)O)[C@H]1CC[C@H](c2ccc(C3=Cc4c(N)ncnc4OC3(C)C)cc2)CC1 (stereo partly drawn) What is its recorded pIC50?
(A) 7.00 to 8.00

(Q) Recorded pIC50 of `Nc1ncnc2c1N=C(c1ccc(OC(F)(F)F)cc1)CO2` , please.
(A) < 7.00

(Q) Requested field: pIC50. Item: `CC1(C)Oc2ncnc(N)c2N=C1c1ccc([C@H]2CC[C@H](CN3CCC(C(N)=O)CC3)CC2)cc1`
(A) 7.00 to 8.00

(Q) Would you mind telling me what pIC50 value was observed for CC1(C)Oc2ncnc(N)c2NC1c1ccc([C@H]2CC[C@H](CCO)CC2)cc1 (stereo partly drawn) ?
(A) < 7.00

(Q) What value of pIC50 has been reported for the following molecule? `Cc1nc(N)c2c(n1)OC(C)(C)C(c1ccc([C@H]3CC[C@H](Cc4n[nH]c(=O)[nH]4)CC3)cc1)=N2`
(A) 7.00 to 8.00

(Q) Name the reported pIC50 value associated with the molecule CCNC(=O)C=C1CCC(c2ccc(C3=Nc4c(N)ncnc4OC3(C)C)cc2)CC1 (stereo not drawn)
(A) 7.00 to 8.00

(Q) What value of pIC50 has been recorded for this entry: `CN(C)c1ccc(-c2ccc(C3=Nc4c(N)ncnc4OC3(C)C)cc2)cc1`
(A) < 7.00

(Q) Find the recorded pIC50 belonging to `CC1(C)Oc2ncnc(N)c2N=C1c1ccc([C@H]2CC[C@H](CC(=O)N3CCC(O)CC3)CC2)cc1` and report it.
(A) 7.00 to 8.00

(Q) If you can, please state the reported pIC50 value of `Cc1nc(N)c2c(n1)OC(C)(C)C(c1ccc([C@H]3CC[C@H](CNC4=NCCO4)CC3)cc1)=N2` .
(A) 7.00 to 8.00

(Q) So what does the record say about pIC50 for Cc1ccc(C2Nc3c(N)ncnc3OC2(C)C)cc1 (stereo not drawn) ?
(A) < 7.00

(Q) // pIC50 lookup, key: `CC1(C)Oc2ncnc(N)c2N=C1c1ccc([C@H]2CC[C@H](CN)CC2)cc1`
(A) 7.00 to 8.00

(Q) Need pIC50 of `CC1(C)Oc2ncnc(N)c2N=C1c1ccc([C@H]2CC[C@H](CSCC(=O)O)CC2)cc1` , thanks.
(A) > 8.00

(Q) Query: pIC50; subject: `Nc1ncnc2c1N=C(c1cccc(Br)c1)CO2`
(A) < 7.00
